Entries with reported IC50 on Tubulin (Bos taurus, UniProt Q6B856+Q862L2+Q862F3)

COc1ccc(S(=O)(=O)N2CCc3ccc(NCc4ccc(C(=O)Nc5ccccc5N)cc4)cc32)cc1	> 10 µM
COc1ccc(S(=O)(=O)n2ccc3ccc(NCc4ccc(C(=O)Nc5ccccc5N)cc4)cc32)cc1	> 10 µM
COc1ccc(S(=O)(=O)N2CCc3cccc(NCc4ccc(C(=O)Nc5ccc(N)cc5)cc4)c32)cc1	3.7 µM
COc1ccc(S(=O)(=O)Nc2cccnc2Nc2ccc(O)cc2)cc1 [ABT-751]	3.2 µM

[Q] IC50 for "COc1ccc(S(=O)(=O)N2CCc3cccc(NCc4ccc(C(=O)Nc5ccccc5N)cc4)c32)cc1OC" ?
[A] > 10 µM

[Q] IC50 for "COc1ccc(S(=O)(=O)N2CCc3cc(NCc4ccc(C(=O)Nc5ccccc5N)cc4)ccc32)cc1" ?
[A] > 10 µM

[Q] IC50 for "COc1ccc(S(=O)(=O)N2CCc3cccc(NCc4ccc(C(=O)Nc5ccccc5O)cc4)c32)cc1" ?
[A] > 10 µM

All figures here come from ChEMBL document CHEMBL4382249.
